Organism: Rattus norvegicus
Assay: DrugMatrix - Regimen: Daily Repeat
Assay type: toxicity, organism-based, Sprague-Dawley
Design: regimen Daily Repeat, gender Male, age 6-8 weeks
Details: in vivo, ip, 0 mg/kg, […], tissue Blood, route intraperitoneal, dose level Control, time 28 day, vehicle 100 % SALINE
parameter: ABSOLUTE EOSINOPHIL

Q) Give me measured ABSOLUTE EOSINOPHIL, please, for this sequence: COBALTOUS CHLORIDE
A) 110 cells/µL

Q) Identify the reported ABSOLUTE EOSINOPHIL for the following entry. "TRANSPLATIN"
A) 110 cells/µL

----------
Species on record: Rattus norvegicus
Assay: DrugMatrix - Regimen: Daily Repeat
Format: toxicity, organism-based, Sprague-Dawley
Parameters: regimen Daily Repeat, gender Male, age 6-8 weeks
Details: in vivo, po, 0 mg/kg, 120 h, tissue Blood, route oral GAVAGE, dose level Control, time 5 day, […]
Exercise: state measured LYMPHOCYTE for each of the molecules provided.
Note: unit % is implicit; provide only the numeric part.

Q) // fetch LYMPHOCYTE given entry c1ccoc1 [FURAN]
A) 87.1

Q) Respond only with LYMPHOCYTE recorded for CCc1ccc(CCOc2ccc(CC3SC(=O)NC3=O)cc2)nc1 (stereo not drawn) [PIOGLITAZONE]
A) 87.83

Q) Look up and state reported LYMPHOCYTE for CC(=O)Oc1ccccc1C(=O)O [ASPIRIN]
A) 89.67

----------
Organism: Rattus norvegicus
Experiment: DrugMatrix - Regimen: Daily Repeat
Format: toxicity, organism-based, Sprague-Dawley
Parameters: regimen Daily Repeat, gender Male, age 6-8 weeks
Conditions: in vivo, po, 0 mg/kg, 72 h, tissue Blood, route oral GAVAGE, dose level Control, time 3 day, vehicle 100 % WATER
parameter: HEMATOCRIT (%)
Enter your answer as a number in %; do not include the unit.

Q) Please list HEMATOCRIT recorded for the compound NC(=O)c1cccnc1 [NIACINAMIDE]
A) 33.43

Q) Please supply the value of reported HEMATOCRIT for the item "CCN(C(C)=O)c1cccc(-c2ccnc3c(C#N)cnn23)c1"
A) 35.77

Q) Provide one value: measured HEMATOCRIT of "CN(C)CCC=C1c2ccccc2CCc2ccccc21"
A) 35.77

Q) Provide HEMATOCRIT value for the following compound: CCN(CC)CCNC(=O)c1ccc(N)cc1 [PROCAINAMIDE]
A) 36.47

Q) Output HEMATOCRIT of CNC1=Nc2ccc(Cl)cc2C(c2ccccc2)=[N+]([O-])C1 [CHLORDIAZEPOXIDE]
A) 36.35

Q) Assign HEMATOCRIT to the following record: "C#Cc1cccc(Nc2ncnc3cc(OCCOC)c(OCCOC)cc23)c1"
A) 42.62

Q) For the compound O=c1[nH]c(=O)n(C2CCCO2)cc1F (stereo unspecified) , give its reported HEMATOCRIT.
A) 35.33

Q) Could you please provide reported HEMATOCRIT for "CCN(CC)CCOC(=O)C1(C2CCCCC2)CCCCC1" ? Thanks!
A) 35.07

Q) // Input: "NC12CC3CC(CC(C3)C1)C2" . Output its HEMATOCRIT only.
A) 35.77

Q) Dear colleague, please send me the reported HEMATOCRIT for CN(C)C(=O)Oc1cccc([N+](C)(C)C)c1.[Br-] [NEOSTIGMINE BROMIDE] when you can.
A) 33.63

Q) Could you please provide reported HEMATOCRIT for CCCC(C)C1(CC)C(=O)NC(=O)NC1=O (stereo unspecified) ? Thanks!
A) 33.63

----------
Species on record: Rattus norvegicus
Test: DrugMatrix - Regimen: Daily Repeat
Format: toxicity, organism-based, Sprague-Dawley
Design: regimen Daily Repeat, gender Male, age 6-8 weeks
Settings: in vivo, po, 0 mg/kg, 72 h, tissue Blood, route oral GAVAGE, dose level Control, time 3 day, vehicle .5 % CMC
parameter: EOSINOPHIL (%)
State the answer as a number, implicitly in %.

Q) Look up EOSINOPHIL of CCCNC(=O)NS(=O)(=O)c1ccc(Cl)cc1 [CHLORPROPAMIDE] and report it.
A) 0.33

Q) Name the recorded EOSINOPHIL of the item "CCOc1nc2cccc(C(=O)O)c2n1Cc1ccc(-c2ccccc2-c2nnn[nH]2)cc1" in your answer.
A) 0.33

Q) Please indicate EOSINOPHIL recorded for "COc1ccccc1[N+](=O)[O-]"
A) 1.67

Q) Report EOSINOPHIL for "C#C[C@]1(O)CC[C@H]2[C@@H]3CCC4=CC(=O)CC[C@]4(C)[C@H]3CC[C@@]21C"
A) 0.46

Q) Hello, please tell me recorded EOSINOPHIL for this one: "CN1C(=O)CN=C(c2ccccc2)c2cc([N+](=O)[O-])ccc21"
A) 0.98

Q) Answer with the recorded EOSINOPHIL for the compound listed here: CCC1=C(C)CN(C(=O)NCCc2ccc(S(=O)(=O)NC(=O)N[C@H]3CC[C@H](C)CC3)cc2)C1=O [GLIMEPIRIDE]
A) 0

Q) Input "C[C@H]1[C@H](NC(=O)/C(=N\OC(C)(C)C(=O)O)c2csc(N)n2)C(=O)N1S(=O)(=O)O" , output reported EOSINOPHIL.
A) 1.33

Q) Identify the reported EOSINOPHIL for the following entry. CCn1cc(C(=O)O)c(=O)c2cc(F)c(N3CCNC(C)C3)c(F)c21 (centres undefined)
A) 0.4

Q) Assign EOSINOPHIL to the following record: "C[C@@](Cc1ccc(O)c(O)c1)(NN)C(=O)O.O"
A) 1.33

----------
Species on record: Rattus norvegicus
Test: DrugMatrix - Regimen: Daily Repeat
Type: toxicity, organism-based, Sprague-Dawley
Design: regimen Daily Repeat, gender Male, age 6-8 weeks
Conditions: in vivo, ip, 10 mg/kg, […], tissue Blood, route intraperitoneal, dose level High, time 14 day, vehicle 100 % SALINE
parameter: ABSOLUTE LYMPHOCYTE (cells/µL)
Express the result in cells/µL but write the number alone.

Q) Answer with reported ABSOLUTE LYMPHOCYTE of COBALTOUS CHLORIDE
A) 8200

----------
Organism: Rattus norvegicus
Test: DrugMatrix - Regimen: Daily Repeat
Format: toxicity, organism-based, Sprague-Dawley
Set-up: regimen Daily Repeat, gender Male, age 6-8 weeks
Settings: in vivo, po, 0 mg/kg, 72 h, tissue Plasma, route oral GAVAGE, dose level Control, time 3 day, […]
Threshold 0.2 mg/dL. CREATININE below it: fulfilled. CREATININE at it or above: not fulfilled.

Q) Could you please tell me whether CREATININE recorded for CC(=O)Oc1ccccc1C(=O)O [ASPIRIN] is less than 0.2 mg/dL?
A) fulfilled

Q) Hi there! Is CREATININE for CCc1ccc(CCOc2ccc(CC3SC(=O)NC3=O)cc2)nc1 (centres undefined) [PIOGLITAZONE] below 0.2 mg/dL, do you know?
A) not fulfilled

Q) A record lists CS(=O)(=O)Nc1ccc([N+](=O)[O-])cc1Oc1ccccc1 [NIMESULIDE] . Is its CREATININE below 0.2 mg/dL?
A) fulfilled

Q) API: query returns whether the molecule falls strictly under 0.2 mg/dL in CREATININE. Query: O=c1c(-c2ccc(O)cc2)coc2cc(O)cc(O)c12 [GENISTEIN]
A) fulfilled

Q) Lab note: CREATININE threshold 0.2 mg/dL. Does this molecule come in strictly under it? CC(C)c1c(C(=O)Nc2ccccc2)c(-c2ccccc2)c(-c2ccc(F)cc2)n1CC[C@@H](O)C[C@@H](O)CC(=O)O [ATORVASTATIN]
A) fulfilled

Q) API: query returns whether the molecule falls strictly under 0.2 mg/dL in CREATININE. Query: Cc1ccc(C)c(OCCCC(C)(C)C(=O)O)c1 [GEMFIBROZIL]
A) fulfilled

Q) CREATININE strictly < 0.2 mg/dL for this molecule? ClC(Cl)(Cl)Cl [CARBON TETRACHLORIDE]
A) fulfilled

Q) Lab note: confirm whether the reported CREATININE for this molecule is below 0.2 mg/dL, equality not counting. molecule: "CCCCC(=O)N(Cc1ccc(-c2ccccc2-c2nnn[nH]2)cc1)[C@H](C(=O)O)C(C)C"
A) fulfilled

Q) A record lists c1ccoc1 [FURAN] . Is its CREATININE below 0.2 mg/dL?
A) not fulfilled

----------
Species on record: Rattus norvegicus
Assay: DrugMatrix - Regimen: Daily Repeat
Assay type: toxicity, organism-based, Sprague-Dawley
Set-up: regimen Daily Repeat, gender Male, age 6-8 weeks
Details: in vivo, ip, 0 mg/kg, […], tissue Blood, route intraperitoneal, dose level Control, time 14 day, vehicle 100 % SALINE
parameter: ABSOLUTE MONOCYTE (cells/µL)
State the answer as a number, implicitly in cells/µL.

Q) Return ABSOLUTE MONOCYTE (reported value) for this sequence: "TRANSPLATIN"
A) 400

Q) # return recorded ABSOLUTE MONOCYTE for entry COBALTOUS CHLORIDE
A) 400
